Molecular target: human RXFP1 (Homo sapiens, UniProt Q9HBX9)
Construct: expressed in transfected cells
Sequence (Q9HBX9 whole entry): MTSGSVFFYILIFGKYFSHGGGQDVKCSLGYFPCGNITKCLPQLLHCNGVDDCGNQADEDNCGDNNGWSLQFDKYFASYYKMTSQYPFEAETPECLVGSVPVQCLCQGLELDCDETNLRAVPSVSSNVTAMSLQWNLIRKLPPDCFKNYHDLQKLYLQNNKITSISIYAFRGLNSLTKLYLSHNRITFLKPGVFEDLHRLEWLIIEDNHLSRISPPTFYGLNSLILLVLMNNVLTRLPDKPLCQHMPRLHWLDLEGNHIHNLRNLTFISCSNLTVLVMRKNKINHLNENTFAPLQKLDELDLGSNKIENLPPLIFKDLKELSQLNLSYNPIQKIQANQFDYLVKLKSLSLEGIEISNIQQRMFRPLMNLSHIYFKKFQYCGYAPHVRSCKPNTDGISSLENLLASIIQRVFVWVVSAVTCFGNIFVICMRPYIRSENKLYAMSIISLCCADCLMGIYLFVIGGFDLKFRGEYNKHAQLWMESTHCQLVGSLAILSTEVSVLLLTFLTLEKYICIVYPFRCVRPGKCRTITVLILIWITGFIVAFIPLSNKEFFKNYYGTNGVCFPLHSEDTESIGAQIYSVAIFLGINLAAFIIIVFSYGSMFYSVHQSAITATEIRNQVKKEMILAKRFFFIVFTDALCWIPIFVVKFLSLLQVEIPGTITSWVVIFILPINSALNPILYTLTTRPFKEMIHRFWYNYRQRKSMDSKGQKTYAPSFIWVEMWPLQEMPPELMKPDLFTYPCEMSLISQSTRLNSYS
Assay: RXFP1 cAMP assay (hRXFP1 HEK293 cAMP assay, HTRF)
Type: cell-based
Details: HEK293 cells stably expressing human RXFP1, 30 min at room temperature, read-out: cAMP hRXFP1 HEK293 Assay EC50
Procedure: RXFP1 Cyclic Adenosine Monophosphate (cAMP) Assays. […] Cells were dissociated and suspended in assay buffer. The assay buffer was HBSS buffer (with calcium and magnesium) containing 20 mM HEPES, 0.05% BSA, and 0.5 mM IBMX. […] The level of intracellular cAMP was determined using the HTRF HiRange cAMP assay reagent kit (Cisbio) according to manufacturer's instructions. […]
Threshold 30 nM. EC50 below it: label 1. EC50 at it or above: label 0.

Request: Below 30 nM on EC50? Entry COc1ccc(-c2cc(CO)ccc2F)cc1C(=O)N[C@@H]1C2CCC(/C2=C/c2cnoc2)[C@@H]1C(=O)Nc1ccc(F)c(C(F)(F)F)c1 (some centres unmarked)
Response: label 0

Request: Below 30 nM on EC50? Entry COc1ccc(C2=NOC3COCC23)cc1C(=O)N[C@H]1[C@@H](C(=O)N[C@@H]2CCCc3ccccc32)[C@H]2CC[C@@H]1/C2=C\C1CC1 (some centres unmarked)
Response: label 1

Request: Below 30 nM on EC50? Entry COc1ccc(C2CCCN2CC(C)(C)O)cc1C(=O)N[C@@H]1C2CCC(C2=CC2CC2)[C@@H]1C(=O)Nc1ccc(F)c(C(F)(F)F)c1 (some centres unmarked) [compound 698]
Response: label 0

Request: Below 30 nM on EC50? Entry COc1ccc(-c2cc(C3OC(=O)N(c4ccccc4)C3=O)ccc2F)cc1C(=O)N[C@@H]1C2CCC(/C2=C/C2CC2)[C@@H]1C(=O)Nc1ccc(F)c(C(F)(F)F)c1 (some centres unmarked)
Response: label 1

Request: Below 30 nM on EC50? Entry COc1ccc(-c2cc(C3=NOC4CC(CO)CC34)ccc2F)cc1C(=O)N[C@H]1[C@@H](C(=O)Nc2ccc(F)c(C(F)(F)F)c2)[C@H]2CC[C@@H]1/C2=C\C1CCCC1 (some centres unmarked) [compound 951]
Response: label 1

###

Kindly state EC50 for each of the entries shown.
Target: human RXFP1 (Homo sapiens)
Construct: expressed in transfected cells
Experiment: RXFP1 cAMP assay (hRXFP1 HEK293 cAMP assay, HTRF)
Type: cell-based
Details: HEK293 cells stably expressing human RXFP1, 30 min at room temperature, read-out: cAMP hRXFP1 HEK293 Assay EC50
Where a name gives a salt, the structure may show the parent alone.
Your answer should be a number followed by the unit of measure.

Request: Given the molecule COc1c(F)cc(C2=NO[C@@H]3C[C@H](CO)CN23)cc1C(=O)N[C@H]1[C@@H](C(=O)Nc2ccc(F)c(C(F)(F)F)c2)[C@H]2CC[C@@H]1/C2=C\C1CC1 , what is its reported EC50?
Response: 3.1 nM

Request: Given the molecule COc1c(F)cc(C2=NOC3CC(CO)CC23)cc1C(=O)N[C@H]1[C@@H](C(=O)N[C@H](C)C23CC(C2)C3)[C@H]2CC[C@@H]1/C2=C\C1CC1 (stereo partly drawn) , what is its reported EC50?
Response: 5 nM

Request: Given the molecule O=C(N[C@H]1[C@@H](C(=O)Nc2ccc(F)c(C(F)(F)F)c2)[C@H]2CC[C@@H]1/C2=C\C1CC1)c1cc(C2=NOC3COCC23)ccc1OCCC(F)(F)F (stereo partly drawn) , what is its reported EC50?
Response: 1.8 nM

Request: Given the molecule COc1ccc([C@H]2CO[C@@H]3[C@H]2OC[C@@H]3O)cc1C(=O)N[C@H]1[C@@H](C(=O)Nc2ccc(F)c(C(F)(F)F)c2)[C@H]2CC[C@@H]1/C2=C\C1CC1 , what is its reported EC50?
Response: 45.3 nM

Request: Given the molecule COc1ccc(-c2ccc(N3CCOCC3)c(C(=O)O)c2)cc1C(=O)N[C@H]1[C@@H](C(=O)Nc2ccc(F)c(C(F)(F)F)c2)[C@H]2CC[C@@H]1/C2=C\C1CC1 [Example 249, TFA] , what is its reported EC50?
Response: 5 nM

Request: Given the molecule COc1ccc(-c2cccc3c2ccn3C(=O)OC(C)(C)C)cc1C(=O)N[C@H]1[C@@H](C(=O)Nc2ccc(F)c(C(F)(F)F)c2)[C@H]2CC[C@@H]1/C2=C\C1CC1 , what is its reported EC50?
Response: 1.6 nM

Request: Given the molecule COc1ccc(C2CCOC2)cc1C(=O)N[C@H]1[C@@H](C(=O)Nc2ccc(F)c(C(F)(F)F)c2)[C@H]2CC[C@@H]1/C2=C\C(F)(F)F (stereo partly drawn) , what is its reported EC50?
Response: 1940 nM

Request: Given the molecule COc1ccc(C2CCCN2C(=O)CCO)cc1C(=O)N[C@@H]1C2CCC(C2=CC2CC2)[C@@H]1C(=O)Nc1ccc(F)c(C(F)(F)F)c1 (stereo partly drawn) [compound 634] , what is its reported EC50?
Response: 191 nM

Request: Given the molecule COc1ccc(C2=NOC3CC(CO)CC23)cc1C(=O)N[C@H]1[C@@H](C(=O)NC2CCCC2)[C@H]2CC[C@@H]1/C2=C\C1CC1 (stereo partly drawn) , what is its reported EC50?
Response: 9.5 nM

Request: Given the molecule COc1ccc(C2=NOC3CC(C#N)CC23)cc1C(=O)N[C@H]1[C@@H](C(=O)Nc2ccc(F)c(C(F)(F)F)c2)[C@H]2CC[C@@H]1/C2=C\C1CC1 (stereo partly drawn) , what is its reported EC50?
Response: 12.7 nM

Request: Given the molecule O=C(N[C@H]1[C@@H](C(=O)Nc2ccc(F)c(C(F)(F)F)c2)[C@H]2CC[C@@H]1/C2=C\C1CC1)c1ccc(F)c(C2=NOC3COCC23)c1 (stereo partly drawn) , what is its reported EC50?
Response: 1750 nM

Request: Given the molecule COc1ccc(C2=NOC(C(=O)O)(C(C)(C)C)C2)cc1C(=O)N[C@H]1[C@@H](C(=O)Nc2ccc(F)c(C(F)(F)F)c2)[C@H]2CC[C@@H]1/C2=C\C(F)(F)F (stereo partly drawn) , what is its reported EC50?
Response: 912 nM

Request: Given the molecule COc1ccc(-c2cc(C(=O)NC(C)C)ccc2F)cc1C(=O)N[C@@H]1C2CCC(C2=C(C)C)[C@@H]1C(=O)Nc1ccc(F)c(C(F)(F)F)c1 (stereo partly drawn) , what is its reported EC50?
Response: 140 nM

Request: Given the molecule COc1ccc(-c2cc(C(=O)O)ccc2F)cc1C(=O)N[C@@H]1C2CCC(/C2=C/C(=O)N2CC(F)(F)C2)[C@@H]1C(=O)Nc1ccc(F)c(C(F)(F)F)c1 (stereo partly drawn) , what is its reported EC50?
Response: 2240 nM

Request: Given the molecule COc1ccc(C2=NOC3COCC23)cc1C(=O)N[C@H]1[C@@H](C(=O)NCc2c(C)cccc2C)[C@H]2CC[C@@H]1/C2=C\C1CC1 (stereo partly drawn) , what is its reported EC50?
Response: 29.4 nM

Request: Given the molecule COc1ccc(-c2cc([C@H](OC(=O)NC3CCC3)C(F)(F)F)ccc2F)cc1C(=O)N[C@@H]1C2CCC(/C2=C/CCC(F)(F)F)[C@@H]1C(=O)Nc1ccc(F)c(C(F)(F)F)c1 (stereo partly drawn) , what is its reported EC50?
Response: 4.7 nM

Request: Given the molecule CCC(CC)NC(=O)[C@@H]1[C@H](NC(=O)c2cc(C3=NOC4COCC34)ccc2OC)[C@@H]2CC[C@H]1/C2=C/C1CC1 (stereo partly drawn) , what is its reported EC50?
Response: 133 nM

Request: Given the molecule COCCOc1ccc(C2=NOC3COCC23)cc1C(=O)N[C@H]1[C@@H](C(=O)Nc2ccc(F)c(C(F)(F)F)c2)[C@H]2CC[C@@H]1/C2=C\C1CC1 (single isomer, unassigned) [Example 452] , what is its reported EC50?
Response: 1.8 nM

Request: Given the molecule COc1ccc(N2CCCS2(=O)=O)cc1C(=O)N[C@@H]1C2CCC(/C2=C/C2CC2)[C@@H]1C(=O)Nc1ccc(F)c(C(F)(F)F)c1 (stereo partly drawn) , what is its reported EC50?
Response: 12 nM

Request: Given the molecule COc1ccc(-c2cc(C(OC(=O)Nc3ccccc3)C(F)(F)F)ccc2F)cc1C(=O)N[C@@H]1C2CCC(/C2=C/C2CC2)[C@@H]1C(=O)Nc1ccc(F)c(C(F)(F)F)c1 (single isomer, unassigned) [compound 224] , what is its reported EC50?
Response: 2 nM

Request: Given the molecule COc1ccc(-c2cc(C(OC(=O)Nc3ccccc3)C(=O)O)ccc2F)cc1C(=O)N[C@@H]1C2CCC(/C2=C/C2CC2)[C@@H]1C(=O)Nc1ccc(F)c(C(F)(F)F)c1 (stereo partly drawn) , what is its reported EC50?
Response: 5 nM
